The values you see were collected from patent US20230278998A1.

biological target: PARG (389-976) (Homo sapiens (Human)); assay: PARG enzyme inhibition assay (TR-FRET); format: biochemical; conditions: Table 1, class symbol
Sequence (Q86W56 389-976): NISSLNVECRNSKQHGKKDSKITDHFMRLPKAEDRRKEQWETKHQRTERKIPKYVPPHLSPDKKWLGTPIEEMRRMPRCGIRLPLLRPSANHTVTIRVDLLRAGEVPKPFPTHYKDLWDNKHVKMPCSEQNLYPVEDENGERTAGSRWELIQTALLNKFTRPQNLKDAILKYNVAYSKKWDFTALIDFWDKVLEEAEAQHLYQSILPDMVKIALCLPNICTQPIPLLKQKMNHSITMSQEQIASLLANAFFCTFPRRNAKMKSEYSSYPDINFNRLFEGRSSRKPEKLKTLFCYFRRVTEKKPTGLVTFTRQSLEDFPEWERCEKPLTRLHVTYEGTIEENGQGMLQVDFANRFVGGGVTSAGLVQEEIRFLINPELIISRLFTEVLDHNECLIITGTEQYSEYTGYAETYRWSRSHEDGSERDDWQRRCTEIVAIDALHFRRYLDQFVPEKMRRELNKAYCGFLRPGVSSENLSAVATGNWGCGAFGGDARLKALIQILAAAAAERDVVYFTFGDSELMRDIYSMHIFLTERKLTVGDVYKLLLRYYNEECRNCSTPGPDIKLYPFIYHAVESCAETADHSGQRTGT
pIC50: −log10 of the molar value.
RECORDED_METRIC: pIC50

CC(C)C(=O)N1CCN(c2cc(S(=O)(=O)NC3(C)CC3)cc3c(-c4nnc(C(F)F)s4)nn(C)c23)CC1 | > 7.00
Cc1nnc(-c2nn(Cc3sc(C)nc3C)c3ccc(S(=O)(=O)NC4(C)CC4)cc23)s1 | > 7.00
Cc1nc(C)c(Cn2nc(-c3nnc(C(F)F)s3)c3cc(S(=O)(=O)NC4(C)CC4)ccc32)s1 | > 7.00
Cc1nc(C)c(Cn2nc(-c3nnc(C(F)F)s3)c3nc(S(=O)(=O)NC4(C)CC4)ccc32)s1 | 6.00 to 7.00
Cc1nc(C)c(Cn2nc(-c3nnc(C(F)F)s3)c3cc(S(=O)(=O)NC4(CF)CC4)ccc32)s1 | > 7.00

Provide pIC50 value for the following compound: Cc1nc(C)c(Cn2nc(-c3nnc(C(F)F)s3)c3cc(S(=O)(=O)NC4(C)CC4)cnc32)s1
> 7.00

Provide pIC50 value for the following compound: Cc1nc(C)c(Cn2cc(-c3nnc(C(F)F)s3)c3cc(S(=O)(=O)NC4(C)CC4)ccc32)s1
> 7.00

Provide pIC50 value for the following compound: CC(C)C(=O)N1CCN(c2cc(S(=O)(=O)NC3(C)CC3)cc3c(-c4nnc(C(F)F)s4)n[nH]c23)CC1
> 7.00

Provide pIC50 value for the following compound: Cc1nc(C)c(Cn2nc(-c3nnc(C(F)F)s3)c3cc(S(=O)(=O)NC4(C)CC4)cc(C(F)(F)F)c32)s1
6.00 to 7.00

Provide pIC50 value for the following compound: Cc1nc(C)c(Cn2c(Cl)c(-c3nnc(C(F)F)s3)c3cc(S(=O)(=O)NC4(C)CC4)ccc32)s1
> 7.00

Provide pIC50 value for the following compound: O=S(=O)(NC1(CF)CC1)c1ccc2c(c1)c(-c1nnc(C(F)F)s1)nn2CC1CC1
> 7.00
